- TARGET_OF_ASSAY: HLA-B*58:01
- ASSAY_SUMMARY: IEDB peptide-MHC binding, purified MHC/competitive/fluorescence; filed as Kd, often an IC50 or EC50 that approximates it; bounds were set here for any values at or beyond the usual limits of such assays
- COND: source organism: Mycobacterium tuberculosis C
PROPERTY: Kd (µM)
Your answer is read as µM, so omit the unit and give the number.

What value of Kd has been reported for the following sequence? RSFRIHILF
4.4

---

- TARGET_OF_ASSAY: HLA-A*30:01
- ASSAY_SUMMARY: IEDB peptide-MHC binding, purified MHC/competitive/radioactivity; filed as Kd, often an IC50 or EC50 that approximates it; bounds were set here for any values at or beyond the usual limits of such assays
- COND: source organism: Dengue virus 2 Peru/IQT2913/1996
PROPERTY: Kd (nM)
Your answer is read as nM, so omit the unit and give the number.

What value of Kd has been reported for the following sequence? KNRLNALGK
142

---

- TARGET_OF_ASSAY: HLA-A*01:01
- ASSAY_SUMMARY: IEDB peptide-MHC binding, purified MHC/direct/fluorescence; filed as Kd, often an IC50 or EC50 that approximates it; bounds were set here for any values at or beyond the usual limits of such assays
- COND: source organism: SARS-CoV1
PROPERTY: pKd
Schema: pKd number; meaning minus log10 of the concentration expressed in molar units.

What value of pKd has been reported for the following sequence? VLWAHGFEL
5.33

---

- TARGET_OF_ASSAY: HLA-A*02:03
- ASSAY_SUMMARY: IEDB peptide-MHC binding, purified MHC/direct/fluorescence; filed as Kd, often an IC50 or EC50 that approximates it; bounds were set here for any values at or beyond the usual limits of such assays
- COND: source organism: Listeria monocytogenes serotype 4b str. H7858
PROPERTY: Kd

What value of Kd has been reported for the following sequence? AALEGLSGF
≥ 20 µM

---

- TARGET_OF_ASSAY: HLA-A*68:02
- ASSAY_SUMMARY: IEDB peptide-MHC binding, purified MHC/direct/fluorescence; filed as Kd, often an IC50 or EC50 that approximates it; bounds were set here for any values at or beyond the usual limits of such assays
- COND: source organism: Limestone Canyon virus
PROPERTY: Kd

What value of Kd has been reported for the following sequence? SPVMGVIGF
≥ 20 µM

---

- TARGET_OF_ASSAY: HLA-B*07:02
- ASSAY_SUMMARY: IEDB peptide-MHC binding, purified MHC/direct/fluorescence; filed as Kd, often an IC50 or EC50 that approximates it; bounds were set here for any values at or beyond the usual limits of such assays
- COND: source organism: Edwardsiella tarda
pKd: −log10 of the molar value.
PROPERTY: pKd

What value of pKd has been reported for the following sequence? AFGLFWLVW
≤ 4.70

---

- TARGET_OF_ASSAY: HLA-A*02:12
- ASSAY_SUMMARY: IEDB peptide-MHC binding, purified MHC/competitive/fluorescence; filed as Kd, often an IC50 or EC50 that approximates it; bounds were set here for any values at or beyond the usual limits of such assays
- COND: source organism: Vibrio vulnificus YJ016
pKd: −log10 of the molar value.
PROPERTY: pKd

What value of pKd has been reported for the following sequence? HTSALSLGY
≤ 4.70

---

- TARGET_OF_ASSAY: HLA-B*27:03
- ASSAY_SUMMARY: IEDB peptide-MHC binding, purified MHC/direct/fluorescence; filed as Kd, often an IC50 or EC50 that approximates it; bounds were set here for any values at or beyond the usual limits of such assays
- COND: source organism: Escherichia coli O157:H7 str. EC869
PROPERTY: Kd

What value of Kd has been reported for the following sequence? SQFNHWFGE
≥ 20 µM

---

- TARGET_OF_ASSAY: HLA-A*02:12
- ASSAY_SUMMARY: IEDB peptide-MHC binding, purified MHC/competitive/fluorescence; filed as Kd, often an IC50 or EC50 that approximates it; bounds were set here for any values at or beyond the usual limits of such assays
- COND: source organism: Human immunodeficiency virus 1
Recorded Kd values for a group of sequences are listed next.
Your answer is read as nM, so omit the unit and give the number.

{"CHAIN": "FLGKIWSS", "Kd (nM)": 0.5}

What value of Kd has been reported for the following sequence? SLVKHHMYV
9.35

---

- TARGET_OF_ASSAY: HLA-C*07:02
- ASSAY_SUMMARY: IEDB peptide-MHC binding, purified MHC/direct/fluorescence; filed as Kd, often an IC50 or EC50 that approximates it; bounds were set here for any values at or beyond the usual limits of such assays
- COND: source organism: Human herpesvirus 4 strain B95-8
PROPERTY: Kd

What value of Kd has been reported for the following sequence? FYNIPPMPL
43 nM

---

- TARGET_OF_ASSAY: HLA-B*40:01
- ASSAY_SUMMARY: IEDB peptide-MHC binding, purified MHC/direct/fluorescence; filed as Kd, often an IC50 or EC50 that approximates it; bounds were set here for any values at or beyond the usual limits of such assays
- COND: source organism: Yellow fever virus 17D
pKd: −log10 of the molar value.
PROPERTY: pKd

What value of pKd has been reported for the following sequence? CRTAFKPVL
≤ 4.70

---

- TARGET_OF_ASSAY: HLA-A*23:01
- ASSAY_SUMMARY: IEDB peptide-MHC binding, purified MHC/competitive/radioactivity; filed as Kd, often an IC50 or EC50 that approximates it; bounds were set here for any values at or beyond the usual limits of such assays
- COND: source organism: Dengue virus 4 Philippines/H241/1956
Recorded Kd values for a group of sequences are listed next.
Your answer is read as nM, so omit the unit and give the number.

{"CHAIN": "GYATQTVGPW", "TARGET_OF_ASSAY": "HLA-A*23:01", "UNIT_SPEC": "nM", "Kd": 549}

Now consider a different sequence.
What value of Kd has been reported for the following sequence? NFLEVEDYGF
54.7

---

- TARGET_OF_ASSAY: HLA-B*46:01
- ASSAY_SUMMARY: IEDB peptide-MHC binding, purified MHC/competitive/fluorescence; filed as Kd, often an IC50 or EC50 that approximates it; bounds were set here for any values at or beyond the usual limits of such assays
- COND: source organism: Entamoeba histolytica HM-1:IMSS
pKd: −log10 of the molar value.
PROPERTY: pKd

What value of pKd has been reported for the following sequence? NPAACSYMV
≤ 4.70

---

- TARGET_OF_ASSAY: HLA-B*15:03
- ASSAY_SUMMARY: IEDB peptide-MHC binding, purified MHC/competitive/radioactivity; filed as Kd, often an IC50 or EC50 that approximates it; bounds were set here for any values at or beyond the usual limits of such assays
- COND: source organism: Vaccinia virus Copenhagen
Recorded pKd values for a group of sequences are listed next.
Schema: pKd number; meaning minus log10 of the concentration expressed in molar units.

{"CHAIN": "LKSVETSSL", "TARGET_OF_ASSAY": "HLA-B*15:03", "PROPERTY": "pKd", "VALUE": 8.42}
{"CHAIN": "YTLYKKLSF", "TARGET_OF_ASSAY": "HLA-B*15:03", "PROPERTY": "pKd", "VALUE": 7.42}

Now consider a different sequence.
What value of pKd has been reported for the following sequence? CLNNSLMSF
9.11

---

- TARGET_OF_ASSAY: HLA-B*08:01
- ASSAY_SUMMARY: IEDB peptide-MHC binding, purified MHC/direct/fluorescence; filed as Kd, often an IC50 or EC50 that approximates it; bounds were set here for any values at or beyond the usual limits of such assays
- COND: source organism: Corynebacterium glutamicum
PROPERTY: Kd (µM)
Your answer is read as µM, so omit the unit and give the number.

Test system HLA-B*08:01; read-out Kd; what value for ATFSRPGSL ?
13.4

---

- TARGET_OF_ASSAY: HLA-A*23:01
- ASSAY_SUMMARY: IEDB peptide-MHC binding, purified MHC/competitive/fluorescence; filed as Kd, often an IC50 or EC50 that approximates it; bounds were set here for any values at or beyond the usual limits of such assays
- COND: source organism: Streptococcus pneumoniae TIGR4
PROPERTY: Kd

What value of Kd has been reported for the following sequence? YQVEGATRV
≥ 20 µM

---

- TARGET_OF_ASSAY: HLA-A*02:19
- ASSAY_SUMMARY: IEDB peptide-MHC binding, purified MHC/direct/fluorescence; filed as Kd, often an IC50 or EC50 that approximates it; bounds were set here for any values at or beyond the usual limits of such assays
- COND: source organism: Orthohantavirus andesense
pKd: −log10 of the molar value.
PROPERTY: pKd

What value of pKd has been reported for the following sequence? EVLKAMSLY
≤ 4.70
